Every entry's value here was drawn from the kinase profiling compilation of Christmann-Franck et al. (2016).

# Test System: NTRK2 (human) (UniProt Q16620)
# Sequence (Q16620 whole entry, looked up): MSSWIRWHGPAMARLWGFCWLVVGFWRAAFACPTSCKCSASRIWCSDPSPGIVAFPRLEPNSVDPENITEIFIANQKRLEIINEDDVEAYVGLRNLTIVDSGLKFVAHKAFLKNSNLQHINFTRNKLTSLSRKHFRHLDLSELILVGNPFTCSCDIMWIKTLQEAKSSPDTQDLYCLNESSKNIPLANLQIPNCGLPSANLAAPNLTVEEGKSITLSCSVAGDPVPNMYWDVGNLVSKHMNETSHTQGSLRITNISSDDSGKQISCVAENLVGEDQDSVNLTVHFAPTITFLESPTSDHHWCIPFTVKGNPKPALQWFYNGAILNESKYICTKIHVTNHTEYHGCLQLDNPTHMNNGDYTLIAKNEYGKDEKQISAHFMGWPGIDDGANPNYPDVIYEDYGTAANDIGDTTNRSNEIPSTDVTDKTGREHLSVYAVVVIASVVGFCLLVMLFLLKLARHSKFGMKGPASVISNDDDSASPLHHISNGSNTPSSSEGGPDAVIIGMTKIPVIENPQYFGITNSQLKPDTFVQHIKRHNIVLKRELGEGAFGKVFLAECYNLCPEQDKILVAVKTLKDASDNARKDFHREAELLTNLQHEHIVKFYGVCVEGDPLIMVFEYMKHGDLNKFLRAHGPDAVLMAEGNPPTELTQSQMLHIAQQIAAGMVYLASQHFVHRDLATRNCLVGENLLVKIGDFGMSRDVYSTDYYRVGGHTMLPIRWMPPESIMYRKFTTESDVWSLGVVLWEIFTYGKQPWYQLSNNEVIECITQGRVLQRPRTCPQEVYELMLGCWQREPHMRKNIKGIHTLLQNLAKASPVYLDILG
# Measurement Notes: radiometric filter-binding kinase assay, Kinase HotSpot
# Recorded Conditions: compound 0.5 µM; ATP 10 µM
Parameter: residual activity (%)
Give bare numbers, in %.

Compound: CC(C)[C@H](CO)Nc1nc(Nc2cccc(Cl)c2)c2ncn(C(C)C)c2n1
residual activity, %: 33.4
--
Compound: Nc1nc(Nc2ccc(S(N)(=O)=O)cc2)nn1C(=S)Nc1c(F)cccc1F
residual activity, %: 11.8
--
Compound: O=C1Cc2c([nH]c3ccc([N+](=O)[O-])cc23)-c2ccccc2N1
residual activity, %: 86.1
--
Compound: COc1cc2ncnc(Nc3ccc(F)c(Cl)c3)c2cc1OCCCN1CCOCC1
residual activity, %: 98.2

Parameter requested: residual activity. Apply to each item below.
1. O=C1Nc2cc(Br)ccc2/C1=C1/Nc2ccccc2/C1=N\O
2. CS(=O)c1ccc(-c2nc(-c3ccc(F)cc3)c(-c3ccncc3)[nH]2)cc1 (stereo unspecified)
3. NC(=O)c1ccc(N(C(N)=O)c2c(F)cccc2F)nc1-c1ccc(F)cc1F
4. C#Cc1cccc(Nc2ncnc3cc(OCCOC)c(OCCOC)cc23)c1
5. COc1ccc(-c2cnc3c(-c4ccsc4)cnn3c2)cc1

1. 10.3
2. 104
3. 102
4. 93.1
5. 82.9

For every listed record, write down its residual activity.
1. CC(C)n1cnc2c(Nc3cccc(Cl)c3)nc(NCCO)nc21
2. O=c1cc(-c2cccc3c2Sc2ccccc2S3)oc(N2CCOCC2)c1

1: 66.1; 2: 99.1

====

# Test System: TAOK3 (human)
# Measurement Notes: radiometric filter-binding kinase assay, Kinase HotSpot
# Recorded Conditions: compound 0.5 µM; ATP 10 µM
Parameter: residual activity (%)
Answers are plain numbers, in %.

Example compounds with recorded residual activity:
Compound: Nc1nc(Nc2ccc(S(N)(=O)=O)cc2)nn1C(=O)c1c(F)cccc1F
residual activity / %: 39.9

Compound: Nc1n[nH]c2nnc(-c3c(-c4ccccc4)nn4ccccc34)cc12
residual activity / %: 101

Compound: O=C(NC(NC(=S)Nc1ccc(F)c([N+](=O)[O-])c1)C(Cl)(Cl)Cl)C(c1ccccc1)c1ccccc1 (stereo not given)
residual activity / %: 121

Compound: COc1ccc(-c2cnc3c(-c4ccsc4)cnn3c2)cc1
residual activity / %: 96.9

For the next question, use this compound.
Form entry - test system: TAOK3 (human); read-out: residual activity; compound: NC(=O)c1ccc(N(C(N)=O)c2c(F)cccc2F)nc1-c1ccc(F)cc1F
95.7

====

# Test System: UniProtKB Q16512
# Sequence (Q16512 whole entry, looked up): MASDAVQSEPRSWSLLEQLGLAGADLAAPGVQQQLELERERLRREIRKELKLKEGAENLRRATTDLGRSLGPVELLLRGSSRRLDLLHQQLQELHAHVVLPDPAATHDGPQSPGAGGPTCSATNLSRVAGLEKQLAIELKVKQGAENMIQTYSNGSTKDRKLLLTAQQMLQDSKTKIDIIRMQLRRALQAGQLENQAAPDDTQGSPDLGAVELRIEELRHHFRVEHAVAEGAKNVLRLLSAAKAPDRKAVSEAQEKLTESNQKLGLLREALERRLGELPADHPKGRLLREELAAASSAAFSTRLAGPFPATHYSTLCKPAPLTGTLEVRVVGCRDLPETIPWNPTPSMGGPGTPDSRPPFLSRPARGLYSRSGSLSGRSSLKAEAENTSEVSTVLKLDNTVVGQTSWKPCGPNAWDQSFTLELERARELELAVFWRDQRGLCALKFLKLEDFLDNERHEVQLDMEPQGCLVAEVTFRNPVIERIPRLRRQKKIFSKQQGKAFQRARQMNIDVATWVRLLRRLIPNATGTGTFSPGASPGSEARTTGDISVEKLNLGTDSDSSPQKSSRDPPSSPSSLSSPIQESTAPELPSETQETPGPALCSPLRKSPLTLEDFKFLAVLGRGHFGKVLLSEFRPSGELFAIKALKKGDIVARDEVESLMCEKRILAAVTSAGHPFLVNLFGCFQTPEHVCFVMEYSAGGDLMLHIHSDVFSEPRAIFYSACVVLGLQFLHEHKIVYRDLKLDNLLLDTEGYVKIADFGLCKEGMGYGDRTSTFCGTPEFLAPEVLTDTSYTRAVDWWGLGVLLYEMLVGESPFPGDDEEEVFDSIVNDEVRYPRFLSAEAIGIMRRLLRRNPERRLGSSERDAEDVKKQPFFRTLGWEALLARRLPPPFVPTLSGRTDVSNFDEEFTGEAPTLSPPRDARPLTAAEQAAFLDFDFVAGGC
# Measurement Notes: radiometric filter-binding kinase assay, Kinase HotSpot
# Recorded Conditions: compound 0.5 µM; ATP 10 µM
Provide the reported residual activity of each item.
Just the number plus its unit, please.

Molecule: O=c1cc(N2CCNCC2)oc2c(-c3ccccc3)cccc12
residual activity: 99.6%
//
Molecule: CC(C)(C)c1nc2c3ccc(F)cc3c3c(=O)[nH]ccc3c2[nH]1
residual activity: 28.3%
//
Molecule: CS(=O)c1ccc(-c2nc(-c3ccc(F)cc3)c(-c3ccncc3)[nH]2)cc1 (stereo unspecified)
residual activity: 96.5%

# batch size: 7; output residual activity per entry
1. NC(=O)c1ccc(N(C(N)=O)c2c(F)cccc2F)nc1-c1ccc(F)cc1F
2. COc1ccc(-c2cnc3c(-c4ccsc4)cnn3c2)cc1
3. CC(C)n1cnc2c(Nc3cccc(Cl)c3)nc(NCCO)nc21
4. Cc1ccc(NC(=O)c2ccc(CN3CCN(C)CC3)cc2)cc1Nc1nc(-c2cccnc2)cs1
5. O=C1Cc2c([nH]c3ccc([N+](=O)[O-])cc23)-c2ccccc2N1
6. COc1cc2nccc(Oc3ccc(NC(=S)NC(=O)c4ccccc4C)cc3)c2cc1OC
7. CSc1nc(-c2ccc(F)cc2)c(-c2ccnc(NC(C)c3ccccc3)c2)[nH]1 (stereo unspecified)

["101%", "93.1%", "101%", "99.3%", "88.2%", "99.2%", "105%"]

Hello, I would appreciate it if you could give residual activity for each entry below.
1. Cc1cc2ncc(-c3ccccc3)nc2cc1C
2. Nc1nc(Nc2ccc(S(N)(=O)=O)cc2)nn1C(=S)Nc1c(F)cccc1F
3. CC(C)[C@H](CO)Nc1nc(Nc2cccc(Cl)c2)c2ncn(C(C)C)c2n1

92.5%
9.7%
100%

Provide residual activity values for the following items, in order.
1. CCN1/C(=C/C(C)=O)Sc2ccc(OC)cc21
2. COc1cc2ncnc(Nc3ccc(F)c(Cl)c3)c2cc1OCCCN1CCOCC1

1: 100%; 2: 105%

Batch request: residual activity for each of the following molecules.
1. Nc1n[nH]c2nnc(-c3c(-c4ccccc4)nn4ccccc34)cc12
2. C#Cc1cccc(Nc2ncnc3cc(OCCOC)c(OCCOC)cc23)c1
3. Nc1nc(Nc2ccc(S(N)(=O)=O)cc2)nn1C(=O)c1c(F)cccc1F
4. O=C1Nc2cc(Br)ccc2/C1=C1/Nc2ccccc2/C1=N\O
5. O=C1Nc2ccccc2/C1=C\c1c(Cl)[nH]c2ccccc12

["98.2%", "108%", "89.7%", "82.2%", "94.6%"]

====

# Test System: PRKACG (human) (UniProt P22612)
# Sequence (P22612 whole entry, looked up): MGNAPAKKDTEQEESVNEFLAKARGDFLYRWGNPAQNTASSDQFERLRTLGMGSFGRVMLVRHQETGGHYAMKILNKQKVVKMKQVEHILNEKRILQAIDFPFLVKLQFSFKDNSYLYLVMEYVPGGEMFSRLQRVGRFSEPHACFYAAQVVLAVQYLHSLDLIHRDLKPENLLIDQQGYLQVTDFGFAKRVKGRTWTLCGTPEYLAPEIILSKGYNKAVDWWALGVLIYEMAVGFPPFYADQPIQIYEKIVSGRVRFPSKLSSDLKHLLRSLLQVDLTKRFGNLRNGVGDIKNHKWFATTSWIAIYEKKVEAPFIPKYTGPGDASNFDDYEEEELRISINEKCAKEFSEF
# Measurement Notes: radiometric filter-binding kinase assay, Kinase HotSpot
# Recorded Conditions: compound 0.5 µM; ATP 10 µM
Please go through the items and note down their residual activity.
One number for each entry, in %.

In the examples that follow, each entry is paired with its recorded residual activity.
Compound: O=C(Nc1ccc(Cl)cc1)c1ccccc1NCc1ccncc1
Unit Annotation: %
residual activity: 87.4
//
Compound: CSc1nc(-c2ccc(F)cc2)c(-c2ccnc(NC(C)c3ccccc3)c2)[nH]1 (stereo not given)
Unit Annotation: %
residual activity: 115
//
Compound: COc1cc2nccc(Oc3ccc(NC(=S)NC(=O)c4ccccc4C)cc3)c2cc1OC
Unit Annotation: %
residual activity: 107
//
Compound: NC(=O)c1ccc(N(C(N)=O)c2c(F)cccc2F)nc1-c1ccc(F)cc1F
Unit Annotation: %
residual activity: 109
//
Compound: CCCNC(=O)Nc1ccc(Oc2ncnc3cc(OC)c(OC)cc23)cc1Cl
Unit Annotation: %
residual activity: 106

For the 5 compounds below, give their residual activity values.
1. O=c1cc(N2CCNCC2)oc2c(-c3ccccc3)cccc12
2. Oc1ccc(-c2nc(-c3ccc(F)cc3)c(-c3ccncc3)[nH]2)cc1
3. Clc1ccc(Nc2nnc(Cc3ccncc3)c3ccccc23)cc1
4. Cc1ccc(NC(=O)c2ccc(CN3CCN(C)CC3)cc2)cc1Nc1nc(-c2cccnc2)cs1
5. COc1ccc(-c2cnc3c(-c4ccsc4)cnn3c2)cc1

[83.2, 78.4, 116, 110, 93.9]

====

Field: residual activity. Provide a value for each of the compounds that follow.
# Test System: UniProtKB P31751
# Sequence (P31751 whole entry, looked up): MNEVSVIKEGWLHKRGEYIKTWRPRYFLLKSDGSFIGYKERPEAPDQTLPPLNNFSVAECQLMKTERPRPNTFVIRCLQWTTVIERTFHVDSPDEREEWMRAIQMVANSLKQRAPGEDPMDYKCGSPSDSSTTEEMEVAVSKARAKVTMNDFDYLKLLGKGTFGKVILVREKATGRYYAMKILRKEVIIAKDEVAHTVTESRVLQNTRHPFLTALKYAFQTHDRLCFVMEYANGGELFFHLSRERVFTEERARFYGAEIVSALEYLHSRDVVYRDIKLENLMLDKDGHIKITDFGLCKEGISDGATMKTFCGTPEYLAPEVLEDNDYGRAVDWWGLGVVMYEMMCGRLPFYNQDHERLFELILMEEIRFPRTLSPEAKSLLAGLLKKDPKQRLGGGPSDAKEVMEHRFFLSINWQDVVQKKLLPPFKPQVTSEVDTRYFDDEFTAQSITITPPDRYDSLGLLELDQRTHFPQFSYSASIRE
# Measurement Notes: radiometric filter-binding kinase assay, Kinase HotSpot
# Recorded Conditions: compound 0.5 µM; ATP 10 µM
Form entry: enter the amount, then its unit.

// below: answered compounds
Cpd Smiles: O=c1cc(-c2cccc3c2Sc2ccccc2S3)oc(N2CCOCC2)c1
Test System: UniProtKB P31751
Result: 96%
//
Cpd Smiles: Cc1ccc(NC(=O)c2ccc(CN3CCN(C)CC3)cc2)cc1Nc1nc(-c2cccnc2)cs1
Test System: UniProtKB P31751
Result: 103%
//
Cpd Smiles: O=C1Nc2ccccc2/C1=C\c1c(Cl)[nH]c2ccccc12
Test System: UniProtKB P31751
Result: 96.8%

# batch size: 6; output residual activity per entry
1. Nc1nc(Nc2ccc(S(N)(=O)=O)cc2)nn1C(=O)c1c(F)cccc1F
2. O=C1Cc2c([nH]c3ccc([N+](=O)[O-])cc23)-c2ccccc2N1
3. Clc1ccc(Nc2nnc(Cc3ccncc3)c3ccccc23)cc1
4. Nc1nc(Nc2ccc(S(N)(=O)=O)cc2)nn1C(=S)Nc1c(F)cccc1F
5. O=C1Nc2cc(Br)ccc2/C1=C1/Nc2ccccc2/C1=N\O
6. Cc1cc2ncc(-c3ccccc3)nc2cc1C

1: 107%; 2: 101%; 3: 104%; 4: 103%; 5: 101%; 6: 99.7%

State the recorded residual activity for every item in the following list.
1. C#Cc1cccc(Nc2ncnc3cc(OCCOC)c(OCCOC)cc23)c1
2. CC(C)(C)c1nc2c3ccc(F)cc3c3c(=O)[nH]ccc3c2[nH]1

1. 108%
2. 89.8%

====

# Test System: UniProtKB P51451
# Sequence (P51451 whole entry, looked up): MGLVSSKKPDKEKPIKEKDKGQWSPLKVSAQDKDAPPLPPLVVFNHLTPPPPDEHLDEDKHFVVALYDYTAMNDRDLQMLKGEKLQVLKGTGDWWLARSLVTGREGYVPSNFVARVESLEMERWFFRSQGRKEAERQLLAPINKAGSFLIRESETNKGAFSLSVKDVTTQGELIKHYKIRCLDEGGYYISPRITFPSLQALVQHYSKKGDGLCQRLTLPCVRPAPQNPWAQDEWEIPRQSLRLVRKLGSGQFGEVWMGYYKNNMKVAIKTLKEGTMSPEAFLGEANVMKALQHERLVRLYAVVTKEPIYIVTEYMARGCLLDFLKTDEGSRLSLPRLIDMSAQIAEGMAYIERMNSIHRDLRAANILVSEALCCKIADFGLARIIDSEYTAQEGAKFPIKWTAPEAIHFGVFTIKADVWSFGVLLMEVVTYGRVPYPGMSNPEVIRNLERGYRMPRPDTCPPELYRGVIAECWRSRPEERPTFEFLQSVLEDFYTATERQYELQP
# Measurement Notes: radiometric filter-binding kinase assay, Kinase HotSpot
# Recorded Conditions: compound 0.5 µM; ATP 10 µM
API: label(entry) gives 1 (yes) if the entry's residual activity is strictly smaller than 90%; on equality or larger values it gives 0 (no).

Cpd Smiles: Nc1nc(Nc2ccc(S(N)(=O)=O)cc2)nn1C(=S)Nc1c(F)cccc1F
Label Value: 1 (yes)
//
Cpd Smiles: O=C(Nc1ccc(Cl)cc1)c1ccccc1NCc1ccncc1
Label Value: 0 (no)
//
Cpd Smiles: Oc1ccc(-c2nc(-c3ccc(F)cc3)c(-c3ccncc3)[nH]2)cc1
Label Value: 0 (no)

Here's an entry: COc1cc2nccc(Oc3ccc(NC(=S)NC(=O)c4ccccc4C)cc3)c2cc1OC . Is its residual activity below 90%?
1 (yes)

residual activity strictly < 90% for this compound? O=C1Nc2cc(Br)ccc2/C1=C1/Nc2ccccc2/C1=N\O
1 (yes)

Please let me know if Cc1cc2ncc(-c3ccccc3)nc2cc1C shows residual activity below 90%.
0 (no)
